Data provenance: paper PMC5540273

Overview of reported inhibition at 1 µM across a group of compounds:
targetOrSystem: FGR (Homo sapiens)
Sequence (P09769 whole entry): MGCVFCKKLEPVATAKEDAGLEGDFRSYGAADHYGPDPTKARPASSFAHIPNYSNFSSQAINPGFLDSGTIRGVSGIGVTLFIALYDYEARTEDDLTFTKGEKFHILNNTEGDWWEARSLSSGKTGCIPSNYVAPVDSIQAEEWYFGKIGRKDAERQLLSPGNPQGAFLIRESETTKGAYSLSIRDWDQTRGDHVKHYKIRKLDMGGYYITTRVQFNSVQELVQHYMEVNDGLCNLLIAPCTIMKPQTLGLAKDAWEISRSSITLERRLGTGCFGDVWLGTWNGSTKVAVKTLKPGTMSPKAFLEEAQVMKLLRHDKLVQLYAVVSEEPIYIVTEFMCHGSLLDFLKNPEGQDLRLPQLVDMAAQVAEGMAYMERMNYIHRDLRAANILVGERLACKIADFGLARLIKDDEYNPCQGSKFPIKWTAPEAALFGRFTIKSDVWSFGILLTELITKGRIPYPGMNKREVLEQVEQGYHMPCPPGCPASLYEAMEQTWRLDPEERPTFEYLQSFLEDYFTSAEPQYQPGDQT
methodSummary: KINOMEscan competition binding
assayContext: read-out: %Inh FGR
Reply with just the number (in %).

For orientation, consider the following solved cases.
>  <compound>
CS(=O)(=O)Cc1ccc(Nc2nccc(-c3c(-c4cccc(NC(=O)C5CCCCC5)c4)nn4ncccc34)n2)cc1 [UNC10225159A]

>  <inhibition at 1 µM / %>
27

$$$$
>  <compound>
Cc1ccc(NC(=O)Nc2cccc(C(F)(F)F)c2)cc1 [UNC10225187A]

>  <inhibition at 1 µM / %>
0

$$$$
>  <compound>
O=c1cc(N2CCOCC2)nc2n(Cc3cccc(Cl)c3Cl)c(C3CC3)nn12 [UNC10225469A]

>  <inhibition at 1 µM / %>
9

$$$$

Incoming: Would you mind telling me what inhibition at 1 µM value was observed for Cn1cc(-c2cnc(N)c3c(-c4ccc5c(c4)CCN5C(=O)Cc4ccccc4)csc23)cn1 [UNC10225012A] ?
Outgoing: 75

Incoming: Would you mind telling me what inhibition at 1 µM value was observed for COc1cccc(OC)c1C(=O)Nc1cccc(-c2nn3ccccc3c2-c2ccnc(Nc3cccc(F)c3)n2)c1 [UNC10225310A] ?
Outgoing: 23

====

Overview of reported inhibition at 1 µM across a group of molecules:
targetOrSystem: BRSK1 (Homo sapiens)
Sequence (Q8TDC3 1-778): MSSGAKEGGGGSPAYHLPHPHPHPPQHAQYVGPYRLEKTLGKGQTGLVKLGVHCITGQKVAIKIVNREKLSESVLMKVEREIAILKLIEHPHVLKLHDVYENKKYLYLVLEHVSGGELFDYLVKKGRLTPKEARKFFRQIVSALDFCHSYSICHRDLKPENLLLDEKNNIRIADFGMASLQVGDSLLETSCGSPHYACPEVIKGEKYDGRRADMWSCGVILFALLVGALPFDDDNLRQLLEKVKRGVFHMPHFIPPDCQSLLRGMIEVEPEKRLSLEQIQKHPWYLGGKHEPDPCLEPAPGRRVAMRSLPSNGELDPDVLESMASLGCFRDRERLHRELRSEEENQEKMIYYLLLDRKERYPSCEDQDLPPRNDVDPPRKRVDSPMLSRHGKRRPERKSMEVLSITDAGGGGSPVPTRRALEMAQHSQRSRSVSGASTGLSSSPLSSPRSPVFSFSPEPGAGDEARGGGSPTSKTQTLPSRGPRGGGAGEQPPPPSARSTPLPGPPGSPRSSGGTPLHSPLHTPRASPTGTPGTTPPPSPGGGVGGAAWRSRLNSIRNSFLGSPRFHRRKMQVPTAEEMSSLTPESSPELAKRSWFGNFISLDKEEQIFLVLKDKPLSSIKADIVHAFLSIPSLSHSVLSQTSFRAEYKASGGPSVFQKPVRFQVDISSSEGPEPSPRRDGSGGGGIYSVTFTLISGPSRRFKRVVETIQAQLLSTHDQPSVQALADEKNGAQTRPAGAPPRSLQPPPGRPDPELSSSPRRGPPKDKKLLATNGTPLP
methodSummary: KINOMEscan competition binding
assayContext: read-out: %Inh BRSK1
Reply with just the number (in %).

Incoming: Would you mind telling me what inhibition at 1 µM value was observed for Cc1ccc(NC(=O)Nc2cccc(C(F)(F)F)c2)cc1 [UNC10225187A] ?
Outgoing: 0

====

targetOrSystem: LIMK2 (Homo sapiens)
Sequence (P53671 whole entry): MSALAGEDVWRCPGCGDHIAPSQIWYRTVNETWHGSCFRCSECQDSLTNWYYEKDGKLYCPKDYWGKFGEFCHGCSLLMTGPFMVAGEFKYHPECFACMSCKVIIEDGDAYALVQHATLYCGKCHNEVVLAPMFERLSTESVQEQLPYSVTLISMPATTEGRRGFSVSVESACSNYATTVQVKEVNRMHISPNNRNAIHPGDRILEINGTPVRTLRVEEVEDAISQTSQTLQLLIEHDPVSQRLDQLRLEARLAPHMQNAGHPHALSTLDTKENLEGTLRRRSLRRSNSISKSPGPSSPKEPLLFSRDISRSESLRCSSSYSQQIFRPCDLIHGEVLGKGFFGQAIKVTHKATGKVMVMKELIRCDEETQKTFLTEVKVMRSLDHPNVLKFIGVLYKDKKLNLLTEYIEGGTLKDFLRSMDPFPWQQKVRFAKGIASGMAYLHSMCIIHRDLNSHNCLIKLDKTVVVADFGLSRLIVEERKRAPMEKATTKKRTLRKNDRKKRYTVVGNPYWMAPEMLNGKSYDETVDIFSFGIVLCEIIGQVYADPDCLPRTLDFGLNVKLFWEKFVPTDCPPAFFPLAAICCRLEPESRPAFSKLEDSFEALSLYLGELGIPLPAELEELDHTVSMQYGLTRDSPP
methodSummary: KINOMEscan competition binding
assayContext: read-out: %Inh LIMK2
reportedEndpoint: inhibition at 1 µM
Express your answer as a number followed by its unit.

For orientation, consider the following solved cases.
>  <molecule>
Cc1ccc(NC(=O)Nc2cccc(C(F)(F)F)c2)cc1 [UNC10225187A]

>  <targetOrSystem>
LIMK2 (Homo sapiens)

>  <inhibition at 1 µM>
10%

$$$$
>  <molecule>
COc1cccc(OC)c1C(=O)Nc1cccc(-c2nn3ccccc3c2-c2ccnc(Nc3cccc(F)c3)n2)c1 [UNC10225310A]

>  <targetOrSystem>
LIMK2 (Homo sapiens)

>  <inhibition at 1 µM>
15%

$$$$
>  <molecule>
CS(=O)(=O)Cc1ccc(Nc2nccc(-c3c(-c4cccc(NC(=O)C5CCCCC5)c4)nn4ncccc34)n2)cc1 [UNC10225159A]

>  <targetOrSystem>
LIMK2 (Homo sapiens)

>  <inhibition at 1 µM>
14%

$$$$
>  <molecule>
Cn1cc(-c2cnc(N)c3c(-c4ccc5c(c4)CCN5C(=O)Cc4ccccc4)csc23)cn1 [UNC10225012A]

>  <targetOrSystem>
LIMK2 (Homo sapiens)

>  <inhibition at 1 µM>
55%

$$$$

Incoming: Would you mind telling me what inhibition at 1 µM value was observed for O=c1cc(N2CCOCC2)nc2n(Cc3cccc(Cl)c3Cl)c(C3CC3)nn12 [UNC10225469A] ?
Outgoing: 8%
